Target: myeloperoxidase (MPO) (Homo sapiens (Human), UniProt P05164)
Sequence (P05164 49-745): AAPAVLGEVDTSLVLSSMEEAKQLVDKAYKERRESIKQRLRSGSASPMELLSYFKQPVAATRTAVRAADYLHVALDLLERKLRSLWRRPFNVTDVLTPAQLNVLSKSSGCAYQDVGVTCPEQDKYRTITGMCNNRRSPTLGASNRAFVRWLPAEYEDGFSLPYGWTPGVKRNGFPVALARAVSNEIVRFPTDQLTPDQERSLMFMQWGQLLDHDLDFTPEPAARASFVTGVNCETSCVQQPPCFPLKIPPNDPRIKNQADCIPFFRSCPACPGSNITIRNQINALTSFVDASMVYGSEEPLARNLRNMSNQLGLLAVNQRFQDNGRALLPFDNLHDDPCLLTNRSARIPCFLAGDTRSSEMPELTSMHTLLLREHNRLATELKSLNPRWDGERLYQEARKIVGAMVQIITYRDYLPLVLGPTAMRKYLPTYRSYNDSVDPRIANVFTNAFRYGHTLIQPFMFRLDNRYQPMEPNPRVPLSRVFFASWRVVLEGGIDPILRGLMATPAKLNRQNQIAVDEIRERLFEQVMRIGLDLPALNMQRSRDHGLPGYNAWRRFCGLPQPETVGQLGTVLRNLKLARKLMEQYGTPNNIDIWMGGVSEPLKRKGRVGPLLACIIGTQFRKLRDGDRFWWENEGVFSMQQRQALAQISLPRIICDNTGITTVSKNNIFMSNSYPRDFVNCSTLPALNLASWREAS
Assay: MPO chlorination assay (APF assay)
Type: biochemical
Details: potency range class
quantity: IC50

[
  {
    "compound": "Cc1nn(-c2ccccc2)nc1Cn1cc(Cc2cc(N)nc3[nH]nnc23)cn1 [Example 114]",
    "IC50": "101 to 999 nM"
  },
  {
    "compound": "Nc1cc(Cc2cnn(Cc3cccc(C4CNC4)c3)c2)c2nn[nH]c2n1 [Example 210]",
    "IC50": "1 to 100 nM"
  },
  {
    "compound": "Nc1cc(Cc2cnn(Cc3cccc(OC[C@@H]4CCCN4)c3)c2)c2nn[nH]c2n1 [Example 242]",
    "IC50": "1 to 100 nM"
  },
  {
    "compound": "COC(=O)[C@@H]1C[C@@H](Oc2cccc(Cn3cc(Cc4cc(N)nc5[nH]nnc45)cn3)c2)CN1 [Example 245]",
    "IC50": "101 to 999 nM"
  },
  {
    "compound": "Nc1cc(Cc2cnn(Cc3ccc(C(=O)NCc4ncn[nH]4)cc3)c2)c2nn[nH]c2n1 [Example 81]",
    "IC50": "101 to 999 nM"
  },
  {
    "compound": "Nc1cc(Cc2cnn(Cc3ccccc3OCc3ccccc3)c2)c2nn[nH]c2n1 [Example 263]",
    "IC50": "101 to 999 nM"
  }
]

// query Please give the measured IC50 for this compound: Nc1cc(Cc2cnn(Cc3cccc([C@H]4CNC(=O)C4)c3)c2)c2nn[nH]c2n1 [Example 188]
// result 101 to 999 nM

// query Nc1cc(Cc2cnn(Cc3ccc4[nH]c(=O)ccc4c3)c2)c2nn[nH]c2n1 [Example 132] ?
// result 1 to 100 nM

====

// reported pIC50 per item
Target: myeloperoxidase (MPO) (Homo sapiens (Human))
Assay: MPO chlorination assay (APF assay)
Assay type: biochemical
Details: potency range class
pIC50: −log10 of the molar value.

Guide cases for pIC50, answers given:
[
  {
    "compound": "Nc1cc(Cc2cnn(Cc3ccc(Cl)cc3Cl)c2)c2nn[nH]c2n1 [Example 117]",
    "pIC50": "6.00 to 7.00"
  },
  {
    "compound": "Cc1cccc(-n2cc(Cc3cc(N)nc4[nH]nnc34)cn2)n1 [Example 20]",
    "pIC50": "7.00 to 9.00"
  },
  {
    "compound": "Nc1cc(Cc2cnn(C(CCO)c3ccccc3)c2)c2nn[nH]c2n1 (centres unmarked) [Example 143]",
    "pIC50": "6.00 to 7.00"
  },
  {
    "compound": "CN(C)CC(=O)NCc1ccc(Cn2cc(Cc3cc(N)nc4[nH]nnc34)cn2)cc1 [Example 251]",
    "pIC50": "6.00 to 7.00"
  }
]

Turning now to a further record.
// query Please give the measured pIC50 for this compound: Nc1cc(Cc2cnn(Cc3ccccc3)c2)c2nn[nH]c2n1 [Example 34]
// result 6.00 to 7.00

====

Target: myeloperoxidase (MPO) (Homo sapiens (Human), UniProt P05164)
Experiment: MPO chlorination assay (APF assay)
Type: biochemical
Settings: potency range class
// reported IC50 per item

Guide cases for IC50, answers given:
[
  {
    "molecule": "COc1ccc(Cn2cc(Cc3cc(N)nc4[nH]nnc34)cn2)cn1 [Example 149]",
    "quantity": "IC50",
    "result": "101 to 999 nM"
  },
  {
    "molecule": "Cc1ccc([C@H]2CNC(=O)C2)cc1Cn1cc(Cc2cc(N)nc3[nH]nnc23)cn1 [Example 192]",
    "quantity": "IC50",
    "result": "101 to 999 nM"
  }
]

// query Please give the measured IC50 for this molecule: Nc1cc(Cc2cnn(Cc3ccc(C(=O)O)cc3)c2)c2nn[nH]c2n1 [Example 46]
// result 1000 to 10000 nM

// query Nc1cc(Cc2cnn(Cc3cccc(C4CCNCC4F)c3)c2)c2nn[nH]c2n1 (stereo not drawn) [Example 216] ?
// result 1 to 100 nM

// query Nc1cc(Cc2cnn(Cc3cccc(-c4ccccc4)c3)c2)c2nn[nH]c2n1 [Example 44] ?
// result 1 to 100 nM

// query Nc1cc(Cc2cnn(Cc3cncc(-c4ccccc4)c3)c2)c2nn[nH]c2n1 [Example 125] ?
// result 1 to 100 nM

// query CC(C)(C)c1ccc(Cn2cc(Cc3cc(N)nc4[nH]nnc34)cn2)cc1 [Example 113] ?
// result 101 to 999 nM

// query Nc1cc(Cc2cn(Cc3ccccc3)nn2)c2nn[nH]c2n1 [Example 52] ?
// result 101 to 999 nM

// query Nc1cc(Cc2cnn(Cc3ccc4c(c3)C(=O)NCC4)c2)c2nn[nH]c2n1 [Example 259] ?
// result 101 to 999 nM
